Hey, just so you know, these numbers are from ChEMBL document CHEMBL4304804.

Test system: Cryptococcus neoformans
Test: Antifungal activity against Cryptococcus neoformans assessed as reduction in fungal cell growth incubated for 48 hrs by serial dilution method
Assay type: functional
Active and inactive are the calls of the source. The rule behind the calls is not given here.

[
  {
    "Molecule": "CCCCCC(=O)N1CCC2(Cc3cccc(C)c3)c3ccccc3N(Cc3cccc(C)c3)C12 (stereo not drawn)",
    "MIC": "inactive"
  },
  {
    "Molecule": "Cc1cccc(CN2c3ccccc3C3(Cc4cccc(C)c4)CCN(C(=O)c4ccccc4)C23)c1 (stereo not drawn)",
    "MIC": "inactive"
  },
  {
    "Molecule": "Cc1ccccc1CN1c2ccccc2C2(Cc3ccccc3C)CCN(C(=O)C(F)(F)F)C12 (stereo not drawn)",
    "MIC": "inactive"
  }
]

----------
Test system: Aspergillus flavus
Experiment: Antifungal activity against Aspergillus flavus assessed as reduction in fungal cell growth incubated for 48 hrs by serial dilution method
Type: functional
Calls of active or inactive are those of the source. The rule behind the calls is not given here.
Measurement Kind: MIC

[
  {
    "Molecule": "CCCCCCC(=O)N1CCC2(Cc3ccccc3C)c3ccccc3N(Cc3ccccc3C)C12 (stereo not given)",
    "MIC": "250 µg/mL"
  },
  {
    "Molecule": "Cc1ccccc1CN1c2ccccc2C2(Cc3ccccc3C)CCN(C(=O)COc3ccccc3)C12 (stereo not given)",
    "MIC": "250 µg/mL"
  },
  {
    "Molecule": "CN1c2ccccc2C2(O)CCCN(C(=O)c3ccccc3F)C12 (stereo not given)",
    "MIC": "inactive"
  },
  {
    "Molecule": "COc1ccc(C(=O)N2CCC3(Cc4cccc(C)c4)c4ccccc4N(Cc4cccc(C)c4)C23)cc1 (stereo not given)",
    "MIC": "250 µg/mL"
  },
  {
    "Molecule": "Cc1cccc(CN2c3ccccc3C3(Cc4cccc(C)c4)CCN(C(=O)c4ccccc4)C23)c1 (stereo not given)",
    "MIC": "250 µg/mL"
  }
]

Recorded MIC for CC(=O)N1CCCC2(O)c3ccccc3N(C)C12 (stereo not given) , please?
inactive

For Cc1ccc(S(=O)(=O)N2CCC3(Cc4ccccc4C)c4ccccc4N(Cc4ccccc4C)C23)cc1 (stereo not given) then?
250 µg/mL

----------
System: Cryptococcus neoformans
Test: Antifungal activity against Cryptococcus neoformans assessed as reduction in fungal cell growth incubated for 48 hrs by serial dilution method
Format: functional
Calls of active or inactive are those of the source. No cut-off for these calls is given here.
Measurement Kind: MIC

Previously resolved entries follow.
[
  {
    "Compound": "CCCCCC(=O)N1CCCC2(O)c3ccccc3N(C)C12 (configuration not stated)",
    "Assay System": "Cryptococcus neoformans",
    "MIC": "250 µg/mL"
  },
  {
    "Compound": "CCCCCCC(=O)N1CCC2(Cc3cccc(C)c3)c3ccccc3N(Cc3cccc(C)c3)C12 (configuration not stated)",
    "Assay System": "Cryptococcus neoformans",
    "MIC": "inactive"
  },
  {
    "Compound": "Cc1cccc(CN2c3ccccc3C3(Cc4cccc(C)c4)CCN(C(=O)Cc4ccccc4)C23)c1 (configuration not stated)",
    "Assay System": "Cryptococcus neoformans",
    "MIC": "inactive"
  },
  {
    "Compound": "Cc1ccc(S(=O)(=O)N2CCC3(Cc4ccccc4C)c4ccccc4N(Cc4ccccc4C)C23)cc1 (configuration not stated)",
    "Assay System": "Cryptococcus neoformans",
    "MIC": "inactive"
  },
  {
    "Compound": "CCCC(=O)N1CCCC2(O)c3ccccc3N(C)C12 (configuration not stated)",
    "Assay System": "Cryptococcus neoformans",
    "MIC": "inactive"
  }
]

Recorded MIC for COc1ccc(C(=O)N2CCC3(Cc4cccc(C)c4)c4ccccc4N(Cc4cccc(C)c4)C23)cc1 (configuration not stated) , please?
inactive

For C[C@@H]1[C@H](O)[C@@H](C)/C=C/C=C/C=C/C=C/C=C/C=C/C=C/[C@H](O[C@@H]2O[C@H](C)[C@@H](O)[C@H](N)[C@@H]2O)C[C@@H]2O[C@](O)(C[C@@H](O)C[C@@H](O)[C@H](O)CC[C@@H](O)C[C@@H](O)CC(=O)O[C@H]1C)C[C@H](O)[C@H]2C(=O)O [AMPHOTERICIN B] then?
1.96 µg/mL

----------
Test system: Curvularia lunata
Assay: Antifungal activity against Curvularia lunata assessed as reduction in fungal cell growth incubated for 48 hrs by serial dilution method
Assay type: functional
Activity calls are given as the source filed them. The calls are words filed in the database; no cut-off is given here.
Measurement Kind: MIC

Previously resolved entries follow.
[
  {
    "Compound": "CCCCCC(=O)N1CCCC2(O)c3ccccc3N(C)C12 (stereo not given)",
    "Value Reported": "250 µg/mL"
  },
  {
    "Compound": "CCCCCCC(=O)N1CCC2(Cc3ccccc3C)c3ccccc3N(Cc3ccccc3C)C12 (stereo not given)",
    "Value Reported": "125 µg/mL"
  },
  {
    "Compound": "CC(C)C(=O)N1CCCC2(O)c3ccccc3N(C)C12 (stereo not given)",
    "Value Reported": "inactive"
  },
  {
    "Compound": "Cc1ccc(S(=O)(=O)N2CCC3(Cc4cccc(C)c4)c4ccccc4N(Cc4cccc(C)c4)C23)cc1 (stereo not given)",
    "Value Reported": "inactive"
  },
  {
    "Compound": "CC(=O)N1CCCC2(O)c3ccccc3N(C)C12 (stereo not given)",
    "Value Reported": "inactive"
  }
]

Recorded MIC for COc1ccc(C(=O)N2CCC3(Cc4cccc(C)c4)c4ccccc4N(Cc4cccc(C)c4)C23)cc1 (stereo not given) , please?
inactive

----------
Tested on: Staphylococcus aureus
Assay: Antibacterial activity against Staphylococcus aureus assessed as reduction in bacterial cell growth incubated for 24 hrs by filter paper assay
Type: functional
Calls of active or inactive are those of the source. The calls are words filed in the database; no cut-off is given here.
Measurement Kind: MIC

Previously resolved entries follow.
[
  {
    "Compound": "Cc1cccc(C(=O)N2CCCC3(O)c4ccccc4N(C)C23)c1 (stereo unspecified)",
    "Assay System": "Staphylococcus aureus",
    "Value Reported": "250 µg/mL"
  },
  {
    "Compound": "CCCCC(=O)N1CCCC2(O)c3ccccc3N(C)C12 (stereo unspecified)",
    "Assay System": "Staphylococcus aureus",
    "Value Reported": "125 µg/mL"
  },
  {
    "Compound": "CCCCCC(=O)N1CCC2(Cc3cccc(C)c3)c3ccccc3N(Cc3cccc(C)c3)C12 (stereo unspecified)",
    "Assay System": "Staphylococcus aureus",
    "Value Reported": "inactive"
  },
  {
    "Compound": "CCCCCCCC(=O)N1CCC2(Cc3ccccc3C)c3ccccc3N(Cc3ccccc3C)C12 (stereo unspecified)",
    "Assay System": "Staphylococcus aureus",
    "Value Reported": "125 µg/mL"
  },
  {
    "Compound": "CN1c2ccccc2C2(O)CCCN(C(=O)c3ccccc3)C12 (stereo unspecified)",
    "Assay System": "Staphylococcus aureus",
    "Value Reported": "250 µg/mL"
  }
]

Recorded MIC for CCCCCCCC(=O)N1CCC2(Cc3cccc(C)c3)c3ccccc3N(Cc3cccc(C)c3)C12 (stereo unspecified) , please?
125 µg/mL

For Cc1cccc(CN2c3ccccc3C3(Cc4cccc(C)c4)CCN(C(=O)Cc4ccccc4)C23)c1 (stereo unspecified) then?
inactive

For Cc1ccc(S(=O)(=O)N2CCC3(Cc4cccc(C)c4)c4ccccc4N(Cc4cccc(C)c4)C23)cc1 (stereo unspecified) then?
inactive

For CCCC(=O)N1CCC2(Cc3cccc(C)c3)c3ccccc3N(Cc3cccc(C)c3)C12 (stereo unspecified) then?
250 µg/mL

For CN1c2ccccc2C2(O)CCCN(C(=O)c3ccc(F)cc3)C12 (stereo unspecified) then?
250 µg/mL

For Cc1cccc(CN2c3ccccc3C3(Cc4cccc(C)c4)CCN(C(=O)c4ccccc4C)C23)c1 (stereo unspecified) then?
inactive

For CCCCC(=O)N1CCC2(Cc3cccc(C)c3)c3ccccc3N(Cc3cccc(C)c3)C12 (stereo unspecified) then?
250 µg/mL

For Cc1ccccc1CN1c2ccccc2C2(Cc3ccccc3C)CCN(C(=O)COc3ccccc3)C12 (stereo unspecified) then?
inactive

For CCCCCC(=O)N1CCC2(Cc3ccccc3C)c3ccccc3N(Cc3ccccc3C)C12 (stereo unspecified) then?
inactive

For Cc1cccc(CN2c3ccccc3C3(Cc4cccc(C)c4)CCN(C(=O)C(F)(F)F)C23)c1 (stereo unspecified) then?
inactive

For CN1c2ccccc2C2(O)CCCN(C(=O)c3cccc(F)c3)C12 (stereo unspecified) then?
inactive

For CCCCCCC(=O)N1CCCC2(O)c3ccccc3N(C)C12 (stereo unspecified) then?
62.5 µg/mL

For CN1c2ccccc2C2(O)CCCN(C(=O)c3ccccc3F)C12 (stereo unspecified) then?
inactive

For CCCC(=O)N1CCCC2(O)c3ccccc3N(C)C12 (stereo unspecified) then?
inactive

For Cc1cccc(CN2c3ccccc3C3(Cc4cccc(C)c4)CCN(S(=O)(=O)c4ccccc4)C23)c1 (stereo unspecified) then?
inactive

For CCC(=O)N1CCC2(Cc3cccc(C)c3)c3ccccc3N(Cc3cccc(C)c3)C12 (stereo unspecified) then?
62.5 µg/mL

For CC(=O)N1CCCC2(O)c3ccccc3N(C)C12 (stereo unspecified) then?
250 µg/mL

For `CC1(C)S[C@@H]2[C@H](NC(=O)Cc3ccccc3)C(=O)N2[C@H]1C(=O)O` then?
15.6 µg/mL

For Cc1cccc(CN2c3ccccc3C3(Cc4cccc(C)c4)CCN(C(=O)COc4ccccc4)C23)c1 (stereo unspecified) then?
inactive

For Cc1ccc(C(=O)N2CCCC3(O)c4ccccc4N(C)C23)cc1 (stereo unspecified) then?
inactive

For Cc1ccccc1CN1c2ccccc2C2(Cc3ccccc3C)CCN(S(=O)(=O)c3ccccc3)C12 (stereo unspecified) then?
inactive

For CC(C)C(=O)N1CCCC2(O)c3ccccc3N(C)C12 (stereo unspecified) then?
inactive
